# measurementTarget: human S1P1 (Homo sapiens)
# assayName: S1P1-mediated β-arrestin recruitment assay (PathHunter eXpress EDG1 CHO-K1)
# Assay type: cell-based
# testParameters: EDG1(S1P1)/β-arrestin CHO-K1 cells, 90 min, mean ± SEM (n = 3–5) or SD (n = 2)
Lab note - cut at 3 nM for EC50: true (1) if strictly below, false (0) if not.

Request: Take the compound O=C(O)C[C@H]1CCc2c1[nH]c1ccc(OCc3ccc(C4CCCC4)c(C(F)(F)F)c3)cc21 [Etrasimod] and say whether its EC50 is less than 3 nM.
Response: false (0)

Request: Take the compound CCC/N=C1\S/C(=C\c2ccc(OC[C@H](O)CO)c(Cl)c2)C(=O)N1c1ccccc1C [Ponesimod] and say whether its EC50 is less than 3 nM.
Response: true (1)

Request: Take the compound CCc1cc(/C(C)=N/OCc2ccc(C3CCCCC3)c(C(F)(F)F)c2)ccc1CN1CC(C(=O)O)C1 [Siponimod] and say whether its EC50 is less than 3 nM.
Response: false (0)

Request: Take the compound CCCCCCCOc1ccc(CCC(N)(CO)COP(=O)(O)O)cc1C(F)(F)F (centres unmarked) [Amiselimod-p] and say whether its EC50 is less than 3 nM.
Response: true (1)

* * *

# measurementTarget: human S1P5 (Homo sapiens, UniProt Q9H228)
# Sequence (Q9H228 whole entry): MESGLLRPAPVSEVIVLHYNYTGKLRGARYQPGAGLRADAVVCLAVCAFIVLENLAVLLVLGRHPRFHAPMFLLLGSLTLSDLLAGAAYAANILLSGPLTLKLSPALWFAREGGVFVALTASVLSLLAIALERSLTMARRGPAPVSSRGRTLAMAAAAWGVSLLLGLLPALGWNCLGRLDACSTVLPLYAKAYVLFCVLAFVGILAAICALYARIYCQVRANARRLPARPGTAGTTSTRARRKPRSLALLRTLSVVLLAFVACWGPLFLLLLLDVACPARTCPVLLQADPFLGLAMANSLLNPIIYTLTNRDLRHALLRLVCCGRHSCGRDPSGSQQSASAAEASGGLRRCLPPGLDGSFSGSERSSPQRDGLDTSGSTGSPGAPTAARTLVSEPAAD
Lab note - cut at 0.4 nM for Ki: t if strictly below, f if not.

Record excerpt, results attached:
CCC/N=C1\S/C(=C\c2ccc(OC[C@H](O)CO)c(Cl)c2)C(=O)N1c1ccccc1C
f
O=C(O)C[C@H]1CCc2c1[nH]c1ccc(OCc3ccc(C4CCCC4)c(C(F)(F)F)c3)cc21
f
CCc1cc(/C(C)=N/OCc2ccc(C3CCCCC3)c(C(F)(F)F)c2)ccc1CN1CC(C(=O)O)C1
f
CC(C)Oc1ccc(-c2nc(-c3cccc4c3CC[C@@H]4NCCO)no2)cc1C#N
f
NC(CO)(CCc1ccc(Sc2cccc(OCc3ccccc3)c2)cc1Cl)COP(=O)(O)O (stereo not drawn) [KRP-203-p, KRP-203-phosphate]
t

--- query ---
Request: Take the compound CCCCCCCOc1ccc(CCC(N)(CO)COP(=O)(O)O)cc1C(F)(F)F (stereo not drawn) and say whether its Ki is less than 0.4 nM.
Response: t

* * *

# measurementTarget: human S1P1 (Homo sapiens, UniProt P21453)
# Sequence (P21453 whole entry): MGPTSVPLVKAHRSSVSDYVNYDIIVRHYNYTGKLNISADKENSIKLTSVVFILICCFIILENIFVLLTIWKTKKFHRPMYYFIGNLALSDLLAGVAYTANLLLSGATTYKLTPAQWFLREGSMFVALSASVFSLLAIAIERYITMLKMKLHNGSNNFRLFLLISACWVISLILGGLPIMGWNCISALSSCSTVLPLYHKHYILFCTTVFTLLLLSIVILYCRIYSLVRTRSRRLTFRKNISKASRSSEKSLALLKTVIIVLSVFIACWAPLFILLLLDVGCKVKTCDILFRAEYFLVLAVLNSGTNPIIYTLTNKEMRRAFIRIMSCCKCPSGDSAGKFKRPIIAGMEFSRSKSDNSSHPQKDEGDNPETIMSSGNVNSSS
# assayName: S1P1-mediated β-arrestin recruitment assay (PathHunter eXpress EDG1 CHO-K1)
# Assay type: cell-based
# testParameters: CHO-K1; read-out: β-arrestin recruitment Intrinsic Activity, human S1P1
readoutName: Emax (%)
Numeric answer only, unit % assumed.

Worked cases, Emax given:
CCCCCCCOc1ccc(CCC(N)(CO)COP(=O)(O)O)cc1C(F)(F)F (stereo not drawn)
76.1
CCC/N=C1\S/C(=C\c2ccc(OC[C@H](O)CO)c(Cl)c2)C(=O)N1c1ccccc1C
61.2

Shifting focus to the compound that follows.
Request: Look up and state reported Emax for CCCCCCCCc1ccc(CCC(N)(CO)COP(=O)(O)O)cc1 (stereo not drawn) [FTY720-p, FTY720-phosphate]
Response: 79.8

* * *

# measurementTarget: human S1P2 (Homo sapiens)
# Construct: membrane preparation
# Sequence (O95136 whole entry): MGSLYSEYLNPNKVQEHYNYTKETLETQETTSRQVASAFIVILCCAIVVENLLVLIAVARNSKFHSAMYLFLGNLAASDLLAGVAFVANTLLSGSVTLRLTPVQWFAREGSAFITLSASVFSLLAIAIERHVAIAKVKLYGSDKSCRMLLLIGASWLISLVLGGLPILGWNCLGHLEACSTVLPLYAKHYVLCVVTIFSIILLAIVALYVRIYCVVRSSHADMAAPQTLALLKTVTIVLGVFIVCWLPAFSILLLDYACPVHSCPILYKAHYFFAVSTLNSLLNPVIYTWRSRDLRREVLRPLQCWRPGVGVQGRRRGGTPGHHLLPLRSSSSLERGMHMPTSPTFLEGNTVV
# assayName: [^35S]-GTPγS binding
# Type: biochemical
# testParameters: intrinsic activity relative to maximal S1P response (100%), mean ± SEM
readoutName: Human S1P2 IA

CCCCCCCCc1ccc(CCC(N)(CO)COP(=O)(O)O)cc1 (stereo not shown) [FTY720-p, FTY720-phosphate]
33.2 ± 1%

Shifting focus to the compound that follows.
Request: State, for human S1P2 (Homo sapiens), measured Human S1P2 IA of the compound listed here: `CC(C)Oc1ccc(-c2nc(-c3cccc4c3CC[C@@H]4NCCO)no2)cc1C#N`
Response: 34.8 ± 1%

* * *

# measurementTarget: human S1P3 (Homo sapiens, UniProt Q99500)
# Construct: membrane preparation
# Sequence (Q99500 whole entry): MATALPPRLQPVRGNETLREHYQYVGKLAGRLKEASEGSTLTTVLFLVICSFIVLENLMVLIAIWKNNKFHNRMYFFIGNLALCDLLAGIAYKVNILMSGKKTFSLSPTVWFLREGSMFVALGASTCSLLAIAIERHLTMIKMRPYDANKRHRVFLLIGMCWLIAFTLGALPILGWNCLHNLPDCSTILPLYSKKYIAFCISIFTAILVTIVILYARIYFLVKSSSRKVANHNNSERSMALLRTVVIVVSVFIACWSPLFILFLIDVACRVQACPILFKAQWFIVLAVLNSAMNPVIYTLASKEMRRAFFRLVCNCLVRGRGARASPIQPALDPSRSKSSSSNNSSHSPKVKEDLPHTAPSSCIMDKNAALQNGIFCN
# assayName: [^35S]-GTPγS binding
# testParameters: [^35S]-GTPγS binding, CHO cell membranes, mean ± SEM
readoutName: pEC50
Formally, pEC50 is defined as -log10 of the concentration c, with c in mol/L.

Worked cases, pEC50 given:
NC(CO)(CCc1ccc(Sc2cccc(OCc3ccccc3)c2)cc1Cl)COP(=O)(O)O (stereo not drawn) [KRP-203-p, KRP-203-phosphate]
8.50
CCCCCCCOc1ccc(CCC(N)(CO)COP(=O)(O)O)cc1C(F)(F)F (stereo not drawn)
7.72

Request: Look up and state reported pEC50 for `CCC/N=C1\S/C(=C\c2ccc(OC[C@H](O)CO)c(Cl)c2)C(=O)N1c1ccccc1C`
Response: 7.05

Request: Look up and state reported pEC50 for `O=C(O)C[C@H]1CCc2c1[nH]c1ccc(OCc3ccc(C4CCCC4)c(C(F)(F)F)c3)cc21`
Response: 5.93

* * *

# measurementTarget: human S1P3 (Homo sapiens, UniProt Q99500)
# Construct: membrane preparation
# assayName: [^35S]-GTPγS binding
# Format: biochemical
# testParameters: intrinsic activity relative to maximal S1P response (100%), mean ± SEM
readoutName: Human S1P3 IA (%)
Numeric answer only, unit % assumed.

Worked cases, Human S1P3 IA given:
CC(C)Oc1ccc(-c2nc(-c3cccc4c3CC[C@@H]4NCCO)no2)cc1C#N
89.4
CCCCCCCCc1ccc(CCC(N)(CO)COP(=O)(O)O)cc1 (stereo not shown) [FTY720-p, FTY720-phosphate]
106.5
CCC/N=C1\S/C(=C\c2ccc(OC[C@H](O)CO)c(Cl)c2)C(=O)N1c1ccccc1C
82.1

Shifting focus to the compound that follows.
Request: State, for human S1P3 (Homo sapiens, UniProt Q99500), measured Human S1P3 IA of the compound listed here: `CCc1cc(/C(C)=N/OCc2ccc(C3CCCCC3)c(C(F)(F)F)c2)ccc1CN1CC(C(=O)O)C1`
Response: 90.7

* * *

As a worked illustration, we turn to Ki data collected for human S1P1 (Homo sapiens).
Numeric answer only, unit nM assumed.

CCCCCCCOc1ccc(CCC(N)(CO)COP(=O)(O)O)cc1C(F)(F)F (stereo not drawn)
0.13
CCc1cc(/C(C)=N/OCc2ccc(C3CCCCC3)c(C(F)(F)F)c2)ccc1CN1CC(C(=O)O)C1
0.74
O=C(O)C[C@H]1CCc2c1[nH]c1ccc(OCc3ccc(C4CCCC4)c(C(F)(F)F)c3)cc21
6.73
CCCCCCCCCCCCC/C=C/[C@@H](O)[C@@H](N)COP(=O)(O)O [S1P, sphingosine 1-phosphate]
2.33
NC(CO)(CCc1ccc(Sc2cccc(OCc3ccccc3)c2)cc1Cl)COP(=O)(O)O (stereo not drawn) [KRP-203-p, KRP-203-phosphate]
0.22

Shifting focus to the compound that follows.
Request: Look up and state reported Ki for `CCC/N=C1\S/C(=C\c2ccc(OC[C@H](O)CO)c(Cl)c2)C(=O)N1c1ccccc1C`
Response: 9.37

* * *

# measurementTarget: human S1P1 (Homo sapiens, UniProt P21453)
# assayName: S1P1-mediated β-arrestin recruitment assay (PathHunter eXpress EDG1 CHO-K1)
# Type: cell-based
# testParameters: CHO-K1; read-out: β-arrestin recruitment Intrinsic Activity, human S1P1
readoutName: Emax (%)
Numeric answer only, unit % assumed.

CC(C)Oc1ccc(-c2nc(-c3cccc4c3CC[C@@H]4NCCO)no2)cc1C#N
68.7
CCc1cc(/C(C)=N/OCc2ccc(C3CCCCC3)c(C(F)(F)F)c2)ccc1CN1CC(C(=O)O)C1
68.6
NC(CO)(CCc1ccc(Sc2cccc(OCc3ccccc3)c2)cc1Cl)COP(=O)(O)O (stereo not shown) [KRP-203-p, KRP-203-phosphate]
72.3

Shifting focus to the compound that follows.
Request: Look up and state reported Emax for `O=C(O)C[C@H]1CCc2c1[nH]c1ccc(OCc3ccc(C4CCCC4)c(C(F)(F)F)c3)cc21`
Response: 75.8
